Task for the reader: assign each of the following compounds its reported IC50.
# experimental system: hERG K+ ion channel (Homo sapiens)
# Sequence (Q12809 whole entry): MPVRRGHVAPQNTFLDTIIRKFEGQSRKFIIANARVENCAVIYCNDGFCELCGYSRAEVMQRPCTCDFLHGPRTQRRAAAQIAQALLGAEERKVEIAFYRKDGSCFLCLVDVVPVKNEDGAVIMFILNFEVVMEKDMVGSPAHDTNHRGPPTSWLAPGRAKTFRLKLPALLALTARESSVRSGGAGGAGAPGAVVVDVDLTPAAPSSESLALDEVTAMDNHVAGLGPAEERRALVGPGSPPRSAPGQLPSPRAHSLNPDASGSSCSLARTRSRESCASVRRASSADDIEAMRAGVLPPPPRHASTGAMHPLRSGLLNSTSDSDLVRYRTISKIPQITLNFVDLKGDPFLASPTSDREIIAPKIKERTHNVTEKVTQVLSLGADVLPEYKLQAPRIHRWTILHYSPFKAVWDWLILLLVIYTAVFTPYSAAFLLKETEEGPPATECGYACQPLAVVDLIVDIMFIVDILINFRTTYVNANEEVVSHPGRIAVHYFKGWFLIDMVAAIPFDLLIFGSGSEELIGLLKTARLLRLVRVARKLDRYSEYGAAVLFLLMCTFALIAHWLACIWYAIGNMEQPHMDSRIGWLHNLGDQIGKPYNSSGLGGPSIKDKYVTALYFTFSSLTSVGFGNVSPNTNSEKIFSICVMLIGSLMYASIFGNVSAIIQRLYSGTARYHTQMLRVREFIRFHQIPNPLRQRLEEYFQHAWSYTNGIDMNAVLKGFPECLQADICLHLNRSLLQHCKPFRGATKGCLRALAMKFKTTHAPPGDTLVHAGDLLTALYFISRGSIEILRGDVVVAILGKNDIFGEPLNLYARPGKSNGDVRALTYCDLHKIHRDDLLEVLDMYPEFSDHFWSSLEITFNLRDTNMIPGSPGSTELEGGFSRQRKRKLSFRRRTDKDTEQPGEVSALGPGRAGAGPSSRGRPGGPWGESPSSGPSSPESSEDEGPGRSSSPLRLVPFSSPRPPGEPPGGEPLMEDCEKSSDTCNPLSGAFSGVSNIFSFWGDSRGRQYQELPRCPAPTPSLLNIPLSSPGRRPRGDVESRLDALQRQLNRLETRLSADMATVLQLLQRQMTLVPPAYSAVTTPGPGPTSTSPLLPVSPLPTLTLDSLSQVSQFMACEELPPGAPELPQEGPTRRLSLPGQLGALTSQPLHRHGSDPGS
# protocol description: hERG activity
# run conditions: assay of Bridgland-Taylor et al.; read-out: IC50 against hERG K+ ion channel

Solved entries (count: 2):
>>> test_value("Cn1cc(-c2cccc(C3(CN)CCN(c4ncnc5[nH]cnc45)CC3)c2)cn1 [Example 6]")
"> 32 µM"
>>> test_value("NC1(C(=O)NCc2ccc(Cl)nc2)CCN(c2ncnc3[nH]ccc23)CC1 [Example 4]")
"> 32 µM"

Looking for the measured IC50 of NCC1(C(=O)NCc2ccc(Cl)nc2)CCN(c2ncnc3[nH]ccc23)CC1 [Example 1] , can you help? > 32 µM

These measurements were taken from patent US20100120798A1.
